# protocolDetails: Thermal stability of cycloisomaltotetraose in aqueous solution
# Type: physicochemical
# conditionSet: water; 7% (w/v) aqueous solution, 120°C, heating time 60 min; read-out: Purity of cycloisomaltotetraose (% by weight)
observedProperty: remaining at 1 h
Note to self: number, then unit, no commentary.

Q: Tell me its remaining at 1 h given "O[C@@H]1[C@@H](O)[C@H]2OC[C@H]3O[C@H](OC[C@H]4O[C@H](OC[C@H]5O[C@H](OC[C@@H](O2)[C@H]1O)[C@H](O)[C@@H](O)[C@@H]5O)[C@H](O)[C@@H](O)[C@@H]4O)[C@H](O)[C@@H](O)[C@@H]3O" as the entry.
Result: 99.5%

====

# protocolDetails: pH stability of cycloisomaltotetraose
# Assay type: physicochemical
# conditionSet: 4% (w/v), pH 3, Acetate buffer, 100°C, read-out: Purity of cycloisomaltotetraose (% by weight)
observedProperty: remaining at 24 h

Q: Tell me its remaining at 24 h given "O[C@@H]1[C@@H](O)[C@H]2OC[C@H]3O[C@H](OC[C@H]4O[C@H](OC[C@H]5O[C@H](OC[C@@H](O2)[C@H]1O)[C@H](O)[C@@H](O)[C@@H]5O)[C@H](O)[C@@H](O)[C@@H]4O)[C@H](O)[C@@H](O)[C@@H]3O" as the entry.
Result: 93.5%

====

# Tested on: cycloisomaltotetraose-forming enzyme from Agreia sp. D1110 (NITE BP-02815)
# protocolDetails: Substrate specificity of cycloisomaltotetraose-forming enzyme (TLC of reaction mixtures); note: key: - : Not formed; + : Slightly formed; ++ : Formed; +++ : Significantly formed
# Type: biochemical
# conditionSet: substrate 1% (w/v), 20 units/g-solid of enzyme, pH 6.0, 40°C, 24 hours
# Excerpt: Substrate specificity of cycloisomaltotetraose-forming enzyme was investigated using various saccharides as substrates. […] The separated saccharides on the plate were detected by visualizing the spots with sulfate-methanol method, and the degree of forming cycloisomaltotetraose from each substrate and the products other than cycloisomaltotetraose were investigated.
observedProperty: Formation of cycloisomaltotetraose

OC[C@H]1O[C@H](OC[C@H]2O[C@H](OC[C@H]3OC(O)[C@H](O)[C@@H](O)[C@@H]3O)[C@H](O)[C@@H](O)[C@@H]2O)[C@H](O)[C@@H](O)[C@@H]1O (stereo partly shown) [Isomaltotriose, isomaltotriose] ... -
OC[C@H]1O[C@H](OC[C@H]2O[C@H](OC[C@H]3O[C@H](OC[C@H]4OC(O)[C@H](O)[C@@H](O)[C@@H]4O)[C@H](O)[C@@H](O)[C@@H]3O)[C@H](O)[C@@H](O)[C@@H]2O)[C@H](O)[C@@H](O)[C@@H]1O (stereo partly shown) [Isomaltotetraose, isomaltotetraose] ... +
OC[C@H]1O[C@H](OC[C@H]2O[C@H](OC[C@H]3O[C@H](OC[C@H]4O[C@H](OC[C@H]5O[C@H](OC[C@H]6OC(O)[C@H](O)[C@@H](O)[C@@H]6O)[C@H](O)[C@@H](O)[C@@H]5O)[C@H](O)[C@@H](O)[C@@H]4O)[C@H](O)[C@@H](O)[C@@H]3O)[C@H](O)[C@@H](O)[C@@H]2O)[C@H](O)[C@@H](O)[C@@H]1O (stereo partly shown) [Isomaltohexaose, isomaltohexaose] ... +++
OC[C@H]1O[C@H](O[C@H]2[C@H](O)[C@@H](O)C(O)O[C@@H]2CO)[C@H](O)[C@@H](O)[C@@H]1O (mixture of isomers) [Maltose, maltose] ... -
